Tested on: KHOS-240S
Experiment: relative viability vs DMSO control (72 h) (fraction); higher = more viable cells
Conditions: 1.111 µM
One threshold, 0.9, splits the recorded relative viability values: lower ones are Satisfied, equal or higher ones are Not satisfied.

Is it true that relative viability reported for `Cc1cc2c(F)c(Oc3ncnn4cc(OC[C@@H](C)O)c(C)c34)ccc2[nH]1` is less than 0.9?
Not satisfied

Is it true that relative viability reported for `CC(C)NC[C@@H](C(=O)N1CCN(c2ncnc3c2[C@H](C)C[C@H]3O)CC1)c1ccc(Cl)cc1` is less than 0.9?
Satisfied

Is it true that relative viability reported for `CN1CC[C@@H](NC(=O)Nc2ccc(C#N)cc2)C[C@@H]1c1nc2ccccc2[nH]1` is less than 0.9?
Not satisfied

Is it true that relative viability reported for `CCc1cnn2c(NCc3ccc[n+]([O-])c3)cc(N3CCCC[C@H]3CCO)nc12` is less than 0.9?
Satisfied

Is it true that relative viability reported for `Cc1cc2cc(Oc3ccnc(Nc4cccc(CS(=O)(=O)NCCN(C)C)c4)n3)ccc2[nH]1` is less than 0.9?
Not satisfied

Is it true that relative viability reported for `O=C(Nc1ccc(OC(F)(F)Cl)cc1)c1cnc(N2CC[C@@H](O)C2)c(-c2cc[nH]n2)c1` is less than 0.9?
Not satisfied

Is it true that relative viability reported for `O=S(=O)(c1cccc2cnccc12)N1CCCNCC1` is less than 0.9?
Not satisfied

###

Tested on: RD-ES
Test: relative viability vs DMSO control (72 h) (fraction); higher = more viable cells
Settings: 1.111 µM
test-readout: relative viability

Entry `CC#CC(=O)N1CCC[C@H]1c1nc(-c2ccc(C(=O)Nc3ccccn3)cc2)c2c(N)nccn12` : relative viability on RD-ES = 1.02

Entry `CCc1cnn2c(NCc3ccc[n+]([O-])c3)cc(N3CCCC[C@H]3CCO)nc12` : relative viability on RD-ES = 0.0013

Entry `CC(C)(C)c1nc(-c2cccc(NS(=O)(=O)c3c(F)cccc3F)c2F)c(-c2ccnc(N)n2)s1` : relative viability on RD-ES = 0.531

###

For each record, write down the corresponding relative viability.
Test system: RD-ES
Experiment: relative viability vs DMSO control (72 h) (fraction); higher = more viable cells
Details: 3.333 µM
The answer should be a number; do not append a unit.

`CNC(=O)c1nnc(NC(=O)C2CC2)cc1Nc1cccc(-c2ncn(C)n2)c1OC` yielded relative viability of 0.998

`CCc1cnn2c(NCc3ccc[n+]([O-])c3)cc(N3CCCC[C@H]3CCO)nc12` yielded relative viability of -0.0014

COc1cc(CCc2cc(NC(=O)c3ccc(N4CC(C)NC(C)C4)cc3)n[nH]2)cc(OC)c1 (stereo not drawn) yielded relative viability of 0.608

`C[C@]12O[C@H](C[C@]1(O)CO)n1c3ccccc3c3c4c(c5c6ccccc6n2c5c31)CNC4=O` yielded relative viability of 0.0482

O=C1NC(=O)[C@@H](c2cn3c4c(cccc24)CCC3)[C@@H]1c1c[nH]c2ccccc12 [Tivantinib] yielded relative viability of 0.071

`N#CCNC(=O)c1ccc(-c2ccnc(Nc3ccc(N4CCOCC4)cc3)n2)cc1` yielded relative viability of 0.84

`CO[C@H]1C[C@@H]2CC[C@@H](C)[C@@](O)(O2)C(=O)C(=O)N2CCCC[C@H]2C(=O)O[C@H]([C@H](C)C[C@@H]2CC[C@@H](OCCO)[C@H](OC)C2)CC(=O)[C@H](C)/C=C(\C)[C@@H](O)[C@@H](OC)C(=O)[C@H](C)C[C@H](C)/C=C/C=C/C=C/1C` yielded relative viability of 0.552

`O=c1sn(-c2cccc3ccccc23)c(=O)n1Cc1ccccc1` yielded relative viability of 1

###

Test system: A204
Experiment: relative viability vs DMSO control (72 h) (fraction); higher = more viable cells
Details: 0.00017 µM
test-readout: relative viability
The answer should be a number; do not append a unit.

Entry COc1cc(OC)c(/C=C/S(=O)(=O)Cc2ccc(OC)c(NCC(=O)O)c2)c(OC)c1 [Rigosertib] : relative viability on A204 = 1.08

Entry Cc1ccc(Nc2nccc(N(C)c3ccc4c(C)n(C)nc4c3)n2)cc1S(N)(=O)=O [Pazopanib] : relative viability on A204 = 1.03

Entry Cc1cccc(-c2nn3c(c2-c2ccnc4ccc(C(N)=O)cc24)CCC3)n1 [Galunisertib] : relative viability on A204 = 1.01

Entry CC1(COc2ccc3c(c2)ncn3-c2ccc3cccc(N4CCC(N)CC4)c3n2)COC1 [Crenolanib] : relative viability on A204 = 1.09

Entry CN1CC[C@@H](NC(=O)Nc2ccc(C#N)cc2)C[C@@H]1c1nc2ccccc2[nH]1 [Glasdegib] : relative viability on A204 = 1.07

Entry N#CCNC(=O)c1ccc(-c2ccnc(Nc3ccc(N4CCOCC4)cc3)n2)cc1 [Momelotinib] : relative viability on A204 = 1.03

###

System: SW982
Assay: standardised AUC of viability dose-response curve (72 h) (fraction (0-1)); higher = less growth inhibition (more resistant)
We use 0.9 as the dividing line for standardised AUC: on or above the line is Y, below is N.

// inclusive: standardised AUC at least 0.9? input: COC(=O)[C@@]1(O)C[C@H]2O[C@]1(C)n1c3ccccc3c3c4c(c5c6ccccc6n2c5c31)C(=O)NC4 [K-252A]
N

// inclusive: standardised AUC at least 0.9? input: CC1(COc2ccc3c(c2)ncn3-c2ccc3cccc(N4CCC(N)CC4)c3n2)COC1 [CRENOLANIB]
N

// inclusive: standardised AUC at least 0.9? input: O=S(=O)(c1cccc2cnccc12)N1CCCNCC1 [FASUDIL]
Y

// inclusive: standardised AUC at least 0.9? input: CC(C)(C)c1nc(-c2cccc(NS(=O)(=O)c3c(F)cccc3F)c2F)c(-c2ccnc(N)n2)s1 [DABRAFENIB]
N

// inclusive: standardised AUC at least 0.9? input: Clc1ccc(Nc2nnc(Cc3ccncc3)c3ccccc23)cc1 [VATALANIB]
Y

// inclusive: standardised AUC at least 0.9? input: N#CCNC(=O)c1ccc(-c2ccnc(Nc3ccc(N4CCOCC4)cc3)n2)cc1 [MOMELOTINIB]
N

// inclusive: standardised AUC at least 0.9? input: Cn1cc(C2=C(c3cn(C4CCN(Cc5ccccn5)CC4)c4ccccc34)C(=O)NC2=O)c2ccccc21 [ENZASTAURIN]
Y

// inclusive: standardised AUC at least 0.9? input: CC[C@@H]1CN(C(=O)NCC(F)(F)F)C[C@@H]1c1cnc2cnc3[nH]ccc3n12 [UPADACITINIB]
Y

###

System: SW684
Assay: relative viability vs DMSO control (72 h) (fraction); higher = more viable cells
Details: 0.3704 µM
test-readout: relative viability
The answer should be a number; do not append a unit.

O=c1sn(-c2cccc3ccccc23)c(=O)n1Cc1ccccc1 [Tideglusib] yielded relative viability of 1.11

Cn1cc(C2=C(c3cn(C4CCN(Cc5ccccn5)CC4)c4ccccc34)C(=O)NC2=O)c2ccccc21 [Enzastaurin] yielded relative viability of 1.18

Clc1ccc(Nc2nnc(Cc3ccncc3)c3ccccc23)cc1 [Vatalanib] yielded relative viability of 1.12

Cc1ccc(Nc2nccc(N(C)c3ccc4c(C)n(C)nc4c3)n2)cc1S(N)(=O)=O [Pazopanib] yielded relative viability of 1.12

O=C1NC(=O)[C@@H](c2cn3c4c(cccc24)CCC3)[C@@H]1c1c[nH]c2ccccc12 [Tivantinib] yielded relative viability of 0.961

O=S(=O)(c1cccc2cnccc12)N1CCCNCC1 [Fasudil] yielded relative viability of 1.02

###

Tested on: SK-ES-1
Experiment: relative viability vs DMSO control (72 h) (fraction); higher = more viable cells
Conditions: 0.01372 µM
For each record, write down the corresponding relative viability.
The answer should be a number; do not append a unit.

`CC#CC(=O)N1CCC[C@H]1c1nc(-c2ccc(C(=O)Nc3ccccn3)cc2)c2c(N)nccn12` yielded relative viability of 0.996

`CC[C@@H]1CN(C(=O)NCC(F)(F)F)C[C@@H]1c1cnc2cnc3[nH]ccc3n12` yielded relative viability of 1.02

`COc1cc(Nc2ncc(F)c(Nc3ccc4c(n3)N(COP(=O)(O)O)C(=O)C(C)(C)O4)n2)cc(OC)c1OC` yielded relative viability of 1.01

`O=C(Nc1ccc(OC(F)(F)Cl)cc1)c1cnc(N2CC[C@@H](O)C2)c(-c2cc[nH]n2)c1` yielded relative viability of 0.992

###

For each record, write down the corresponding relative viability.
System: RD
Assay: relative viability vs DMSO control (72 h) (fraction); higher = more viable cells
Settings: 0.00152 µM
The answer should be a number; do not append a unit.

`Cc1cccc(-c2nn3c(c2-c2ccnc4ccc(C(N)=O)cc24)CCC3)n1` yielded relative viability of 1.08

COc1cc(CCc2cc(NC(=O)c3ccc(N4CC(C)NC(C)C4)cc3)n[nH]2)cc(OC)c1 (stereo not drawn) yielded relative viability of 1.07

`CC(C)(C)c1nc(-c2cccc(NS(=O)(=O)c3c(F)cccc3F)c2F)c(-c2ccnc(N)n2)s1` yielded relative viability of 1.07

`Cc1ccc(Nc2nccc(N(C)c3ccc4c(C)n(C)nc4c3)n2)cc1S(N)(=O)=O` yielded relative viability of 1.12

`O=C(Nc1nc2cccc(-c3ccc(CN4CCS(=O)(=O)CC4)cc3)n2n1)C1CC1` yielded relative viability of 1.04

`CNC(=O)c1ccccc1Sc1ccc2c(/C=C/c3ccccn3)n[nH]c2c1` yielded relative viability of 1

`CC(C)(O)CNc1nc(Nc2ccnc(C(F)(F)F)c2)nc(-c2cccc(C(F)(F)F)n2)n1` yielded relative viability of 1.11

`COc1cc(OC)c(/C=C/S(=O)(=O)Cc2ccc(OC)c(NCC(=O)O)c2)c(OC)c1` yielded relative viability of 1.08
